target: Sigma non-opioid intracellular receptor 1 (Homo sapiens, UniProt Q99720); assay: DRUGMATRIX: Sigma1 radioligand binding (ligand: [3H] Haloperidol); format: cell membranes, Jurkat, Membrane; settings: Not Active = under 50% inhibition at 10 µM; read-out: Ki
Sequence (Q99720 whole entry): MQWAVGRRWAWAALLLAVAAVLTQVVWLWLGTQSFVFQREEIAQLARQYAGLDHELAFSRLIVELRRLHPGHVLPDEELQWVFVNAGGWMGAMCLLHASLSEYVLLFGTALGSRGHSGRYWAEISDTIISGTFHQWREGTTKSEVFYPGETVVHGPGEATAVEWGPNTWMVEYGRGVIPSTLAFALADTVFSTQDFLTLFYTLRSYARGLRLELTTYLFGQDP
Ki less than 600 nM is 1; Ki greater than or equal to 600 nM is -1.

Solved entries:
CSc1ccc2c(c1)N(CCC1CCCCN1C)c1ccccc1S2 (stereo not given) [THIORIDAZINE]: 1
Fc1ccc([C@@H]2CCNC[C@H]2COc2ccc3c(c2)OCO3)cc1 [PAROXETINE]: -1
CN(C)CCCN1c2ccccc2CCc2ccc(Cl)cc21 [CLOMIPRAMINE]: 1
COc1ccc(CN(CCN(C)C)c2ccccn2)cc1 [PYRILAMINE]: -1

Now turn to the next molecule.
Q: Given the entry Cc1ccc(C(=O)C(C)CN2CCCCC2)cc1 (stereo not given) [TOLPERISONE] , would its reported Ki be below 600 nM?
A: 1

Where do the numbers come from? From ChEMBL document CHEMBL1909046.
